Reference source for all entries: the supplement of paper PMC8728848

Recorded glycan array binding signal (z-score), one value per entry.
Target: GalNAc(a1-3)GalNAc(b1-3)Gal(a1-4)Gal(b1-4)Glc
Assay: glycan array binding signal (z-score within array); higher = stronger binding
Settings: glycan notation: IUPAC condensed, linker removed
This excerpt belongs to a sample that is enriched for the strongest signals.
Reply with the value as a number alone.

Known glycan array binding signal (z-score) results, listed for orientation:
BabA (Helicobacter pylori), O52269_HELPY (protein) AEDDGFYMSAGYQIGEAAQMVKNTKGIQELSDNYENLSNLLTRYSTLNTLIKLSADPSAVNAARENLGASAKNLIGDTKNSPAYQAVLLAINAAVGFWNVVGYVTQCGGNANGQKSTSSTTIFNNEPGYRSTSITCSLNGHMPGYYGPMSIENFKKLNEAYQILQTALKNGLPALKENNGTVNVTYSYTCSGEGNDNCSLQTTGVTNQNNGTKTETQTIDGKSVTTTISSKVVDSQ    -0.709
Epa23 (Candida glabrata) (protein) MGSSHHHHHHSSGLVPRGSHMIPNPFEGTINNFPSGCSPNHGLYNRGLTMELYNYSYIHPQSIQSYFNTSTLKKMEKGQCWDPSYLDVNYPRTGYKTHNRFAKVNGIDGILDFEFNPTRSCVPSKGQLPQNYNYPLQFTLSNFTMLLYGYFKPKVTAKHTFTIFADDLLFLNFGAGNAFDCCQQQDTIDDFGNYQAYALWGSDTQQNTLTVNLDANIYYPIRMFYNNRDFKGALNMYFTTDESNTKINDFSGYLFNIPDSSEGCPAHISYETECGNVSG    -0.137

(Q) Look at this binder and give its reported glycan array binding signal (z-score). ConA (Canavalia ensiformis), P02866 (protein) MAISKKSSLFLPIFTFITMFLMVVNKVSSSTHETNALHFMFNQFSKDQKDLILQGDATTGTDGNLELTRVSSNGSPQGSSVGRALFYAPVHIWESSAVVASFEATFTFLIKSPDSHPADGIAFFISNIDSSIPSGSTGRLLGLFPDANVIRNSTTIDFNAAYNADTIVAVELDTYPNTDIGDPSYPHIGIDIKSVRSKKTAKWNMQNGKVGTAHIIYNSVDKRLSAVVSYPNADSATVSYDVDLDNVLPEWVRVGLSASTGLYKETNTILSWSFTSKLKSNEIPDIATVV
(A) -0.201
